Origin of the recorded values: ChEMBL document CHEMBL1140080

Assay: Antiproliferative activity against human KG1 AML cells at 5 uM after 48 hrs by MTT assay
Type: functional
Settings: in the assay text read “by hemocytometer cell counting” for “by MTT assay”
Quick reference for Activity among some molecules

compound.smiles	Activity
Nc1ccc(-c2ccc(/C=C/C(=O)O)cc2Cl)cc1C12CC3CC(CC(C3)C1)C2	50%
O=C(O)/C=C/c1ccc(-c2ccc(F)c(C34CC5CC(CC(C5)C3)C4)c2)c(Cl)c1	0%
CC1(c2cc(-c3ccc(/C=C/C(=O)O)cc3Cl)ccc2O)CCCCC1	0%
O=C(O)/C=C/c1ccc(-c2ccc(O)c(C34CC5CC(CC3C5)C4)c2)c(Cl)c1	94%
CC(=O)Nc1ccc(-c2ccc(/C=C/C(=O)O)cc2Cl)cc1C12CC3CC(CC(C3)C1)C2	25%
CC1(c2cc(-c3ccc(/C=C/C(=O)O)cc3Cl)ccc2O)SCCCS1	0%
CCC(CC)(CC)c1cc(-c2ccc(/C=C/C(=O)O)cc2Cl)ccc1O	0%
O=C(O)/C=C/c1ccc(-c2ccc(O)c(C34CC5CC(CC(C5)C3)C4)c2)c(Cl)c1	67%
CC(C)(C)C#Cc1cc(-c2ccc(/C=C/C(=O)O)cc2Cl)ccc1O	22%
O=C(O)/C=C/c1ccc(-c2ccc(F)cc2)c(Cl)c1	7%
Cc1cccc(C)c1-c1cc(-c2ccc(/C=C/C(=O)O)cc2Cl)ccc1O	0%
CC12CC3CC(C)(C1)CC(c1cc(-c4ccc(/C=C/C(=O)O)cc4Cl)ccc1O)(C3)C2	0%

###

System: MDA-MB-231
Assay: Antiproliferative activity against human MDA-MB-231 cells at 5 uM after 72 hrs by MTT assay
Type: functional
Conditions: MDA-MB-231, 72 h

compound.smiles	inhibition at 5 µM
CC12CC3CC(C)(C1)CC(c1cc(-c4ccc(/C=C/C(=O)O)cc4Cl)ccc1O)(C3)C2	7%
CC(=O)Nc1ccc(-c2ccc(/C=C/C(=O)O)cc2Cl)cc1C12CC3CC(CC(C3)C1)C2	-5%
CCC(CC)(CC)c1cc(-c2ccc(/C=C/C(=O)O)cc2Cl)ccc1O	2%
CC1(c2cc(-c3ccc(/C=C/C(=O)O)cc3Cl)ccc2O)CCCCC1	9%
Nc1ccc(-c2ccc(/C=C/C(=O)O)cc2Cl)cc1C12CC3CC(CC(C3)C1)C2	61%

###

Target: Nuclear receptor subfamily 0 group B member 2 (Homo sapiens)
Sequence (whole entry): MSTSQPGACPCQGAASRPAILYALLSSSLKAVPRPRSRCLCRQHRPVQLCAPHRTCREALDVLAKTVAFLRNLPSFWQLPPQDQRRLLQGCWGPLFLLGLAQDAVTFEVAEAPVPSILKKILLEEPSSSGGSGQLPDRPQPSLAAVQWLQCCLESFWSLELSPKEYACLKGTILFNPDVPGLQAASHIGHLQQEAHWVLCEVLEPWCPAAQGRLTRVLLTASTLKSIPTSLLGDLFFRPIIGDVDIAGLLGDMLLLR
Experiment: Displacement of [5,5'-3H2]AHPN from human recombinant GST-SHP at 50 uM by liquid scintillation counting relative to 3-Cl-AHPC
Entries whose Activity is below 90% take satisfied; entries at or above 90% take not satisfied.

compound.smiles	class.name
CC12CC3CC(C)(C1)CC(c1cc(-c4ccc(/C=C/C(=O)O)cc4Cl)ccc1O)(C3)C2	not satisfied
CC(=O)Nc1ccc(-c2ccc(/C=C/C(=O)O)cc2Cl)cc1C12CC3CC(CC(C3)C1)C2	satisfied
Nc1ccc(-c2ccc(/C=C/C(=O)O)cc2Cl)cc1C12CC3CC(CC(C3)C1)C2	satisfied
O=C(O)/C=C/c1ccc(-c2ccc(O)c(C34CC5CC(CC3C5)C4)c2)c(Cl)c1	satisfied
